Reference source: patent US20230233569A1

Target: KRAS G13C (Homo sapiens, UniProt P01116+P62937, G13C)
Sequence (P01116 1-169 isoform P01116-2 G13C limits assumed, one chain of several): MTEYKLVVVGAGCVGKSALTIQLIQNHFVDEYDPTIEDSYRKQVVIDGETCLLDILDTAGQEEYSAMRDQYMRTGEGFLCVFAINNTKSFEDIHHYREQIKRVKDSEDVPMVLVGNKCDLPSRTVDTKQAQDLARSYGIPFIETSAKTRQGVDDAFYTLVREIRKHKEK
Experiment: Ras-Raf disruption / FRET / MOA assay (BRAF RBD)
Type: biochemical
Settings: Ras-Raf disruption, with Cyclophilin A; read-out: KRAS G13C FRET data IC50
Description: Disruption of […] Ras-binding Domain (BRAF^RBD) Interaction with K-Ras by Compounds of the Invention (also Called a FRET Assay or an MOA Assay) Note—The following protocol describes a procedure for monitoring disruption of K-Ras G12C (GMP-PNP) binding to BRAF^RBD by a compound of the invention. This protocol may also be executed substituting other Ras proteins or nucleotides, such as K-Ras G12D and K-Ras G13D. […]
pIC50: −log10 of the molar value.
observable: pIC50

The reported pIC50 of the compound CCn1c(-c2cccnc2[C@H](C)OC)c2c3cc(ccc31)-c1csc(n1)C[C@H](NC(=O)[C@H](C(C)C)N(C)C(=O)N(C)CCN(C)C(=O)[C@@H]1CN1)C(=O)N1CCC[C@H](N1)C(=O)OCC(C)(C)C2 (atropisomer, axis not shown) was 6.00 to 7.00

The reported pIC50 of the compound CCn1c(-c2cccnc2[C@H](C)OC)c2c3cc(ccc31)-c1cc(O)cc(c1)C[C@H](NC(=O)[C@H](C(C)C)N(C)C(=O)[C@]1(F)CCN(C(=O)[C@H]3CN3)C1)C(=O)N1CCC[C@H](N1)C(=O)OCC(C)(C)C2 (atropisomer, axis not shown) was 7.00 to 8.00

The reported pIC50 of the compound CCn1c(-c2cccnc2[C@H](C)OC)c2c3cc(ccc31)-c1cc(O)cc(c1)C[C@H](NC(=O)[C@H](C(C)C)N(C)C(=O)N1CCN(C(=O)[C@@H]3CN3)CC1=O)C(=O)N1CCC[C@H](N1)C(=O)OCC(C)(C)C2 (atropisomer, axis not shown) was > 8.00

The reported pIC50 of the compound CCn1c(-c2cccnc2[C@H](C)OC)c2c3cc(ccc31)-c1cc(O)cc(c1)C[C@H](NC(=O)[C@H](C(C)C)N(C)C(=O)C1CCN(S(=O)(=O)[C@@H]3CN3C)CC1)C(=O)N1CCC[C@H](N1)C(=O)OCC(C)(C)C2 (single isomer, unassigned) was 7.00 to 8.00

====

Attribute: IC50
system: AKT1/2/3 (Ser473) phosphorylation (mTORC2) in MDA-MB-468 cells; assay: Cell based AlphaLISA assay, mTOR kinase cellular assay: inhibition of p-Akt (S473) in MDA-MB-468 cells; details: Homo sapiens, read-out: pIC50 for Inhibition of mTORC1 and mTORC2 Substarte Phosphorylation p-AKT1/2/3-(S473) (converted)

The examples below pair each entry with its known result.
- compound: "CO[C@H]1C[C@@H]2CC[C@@H](C)[C@@](O)(O2)C(=O)C(=O)N2CCCC[C@H]2C(=O)O[C@H]([C@H](C)C[C@@H]2CC[C@@H](OC(=O)NCCOCCOCCOCCOCCOCCOCCOCCOCCC(=O)N3CCc4cc(Cn5nc(-c6ccc7oc(N)nc7c6)c6c(N)ncnc65)ccc4C3)[C@H](OC)C2)CC(=O)[C@H](C)/C=C(\\C)[C@@H](O)[C@@H](OC)C(=O)[C@H](C)C[C@H](C)/C=C/C=C/C=C/1C [Example 2]"
  IC50: "3.16 to 31.6 nM"
- compound: "CO[C@H]1C[C@@H]2CC[C@@H](C)[C@@](O)(O2)C(=O)C(=O)N2CCCC[C@H]2C(=O)O[C@H]([C@H](C)C[C@@H]2CC[C@@H](OC(=S)NCc3cnc(N4CCN(C(=O)CCOCCN5CCN(c6ncc(C(=O)N7CCc8cc(Cn9nc(-c%10ccc%11oc(N)nc%11c%10)c%10c(N)ncnc%109)ccc8C7)cn6)CC5)CC4)nc3)[C@H](OC)C2)C[C@@H](O)[C@H](C)/C=C(\\C)[C@@H](O)[C@@H](OC)C(=O)[C@H](C)C[C@H](C)/C=C/C=C/C=C/1C [Example 117]"
  IC50: "3.16 to 31.6 nM"

Could you now consider this next compound?
The reported IC50 of the compound CO[C@H]1C[C@@H]2CC[C@@H](C)[C@@](O)(O2)C(=O)C(=O)N2CCCC[C@H]2C(=O)O[C@H]([C@H](C)C[C@@H]2CC[C@@H](OC(=O)NCc3cnc(N4CCN(c5ncc(C(=O)NCCOCCOCCOCCOCCC(=O)N6CCc7cc(Cn8nc(-c9cnc%10[nH]ccc%10c9)c9c(N)ncnc98)ccc7C6)cn5)CC4CO)nc3)[C@H](OC)C2)CC(=O)[C@H](C)/C=C(\C)[C@@H](O)[C@@H](OC)C(=O)[C@H](C)C[C@H](C)/C=C/C=C/C=C/1C (stereo partly drawn) [Example 41] was > 1000 nM

====

Molecular target: KRAS G12C (Homo sapiens, UniProt P01116+P62937, G12C)
Sequence (P01116 1-169 isoform P01116-2 G12C limits assumed): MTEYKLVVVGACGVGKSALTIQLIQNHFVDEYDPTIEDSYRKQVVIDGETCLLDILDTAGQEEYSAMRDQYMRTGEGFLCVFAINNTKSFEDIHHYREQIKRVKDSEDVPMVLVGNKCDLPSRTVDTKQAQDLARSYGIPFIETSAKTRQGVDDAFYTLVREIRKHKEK
Sequence (P62937 whole entry): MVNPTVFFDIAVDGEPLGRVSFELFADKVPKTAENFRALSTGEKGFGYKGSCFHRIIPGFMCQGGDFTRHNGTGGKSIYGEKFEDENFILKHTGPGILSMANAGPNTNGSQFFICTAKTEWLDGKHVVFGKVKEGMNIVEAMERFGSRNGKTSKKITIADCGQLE
Experiment: Ras-Raf disruption / FRET / MOA assay (BRAF RBD)
Type: biochemical
Conditions: Ras-Raf disruption, with Cyclophilin A; read-out: KRAS G12C FRET data IC50
From the text: Disruption of […] Ras-binding Domain (BRAF^RBD) Interaction with K-Ras by Compounds of the Invention (also Called a FRET Assay or an MOA Assay) Note—The following protocol describes a procedure for monitoring disruption of K-Ras G12C (GMP-PNP) binding to BRAF^RBD by a compound of the invention. This protocol may also be executed substituting other Ras proteins or nucleotides, such as K-Ras G12D and K-Ras G13D. […]
observable: IC50

The examples below pair each entry with its known result.
- compound: "CCn1c(-c2cnccc2COC)c2c3cc(ccc31)-c1cccc(c1)C[C@H](NC(=O)[C@H](C(C)C)N(C)C(=O)CC(C)(C)N=C=Nc1ccc(OC)cc1)C(=O)N1CCC[C@H](N1)C(=O)OCC(C)(C)C2 [64 A and B]"
  reported measurement: "> 10000 nM"
- compound: "CCn1c(-c2cccnc2[C@H](C)OC)c2c3cc(ccc31)-c1cc(O)cc(c1)C[C@H](NC(=O)[C@H](C(C)C)N(C)C(=O)[C@@]1(F)CCN(C(=O)[C@@H]3CN3)C1)C(=O)N1CCC[C@H](N1)C(=O)OCC(C)(C)C2 (atropisomer, axis not shown) [Example 185]"
  reported measurement: "10 to 100 nM"
- compound: "CCn1c(-c2cccnc2[C@H](C)OC)c2c3cc(ccc31)-c1cc(O)cc(c1)C[C@H](NC(=O)[C@H](C(C)C)N(C)C(=O)N1C[C@@H]3[C@H]1CCN3C(=O)[C@H]1CN1)C(=O)N1CCC[C@H](N1)C(=O)OCC(C)(C)C2 (atropisomer, axis not shown) [Example 250]"
  reported measurement: "10 to 100 nM"

Could you now consider this next compound?
The reported IC50 of the compound CCn1c(-c2cccnc2[C@H](C)OC)c2c3cc(ccc31)-c1csc(n1)C[C@H](NC(=O)[C@H](C(C)C)N(C)C(=O)N1CCC(CN(C)C(=O)[C@H]3CN3)CC1)C(=O)N1CCC[C@H](N1)C(=O)OCC(C)(C)C2 (atropisomer, axis not shown) [Example 326] was 10 to 100 nM

====

Attribute: IC50
target: NRAS G12C (Homo sapiens, UniProt P01111+P62937, G12C); assay: Disruption of BRAF RBD interaction with Ras (FRET / MOA assay, with Cyclophilin A); format: biochemical; conditions: NRAS G12C; read-out: NRAS G12C FRET data IC50
Sequence (P01111 whole entry G12C): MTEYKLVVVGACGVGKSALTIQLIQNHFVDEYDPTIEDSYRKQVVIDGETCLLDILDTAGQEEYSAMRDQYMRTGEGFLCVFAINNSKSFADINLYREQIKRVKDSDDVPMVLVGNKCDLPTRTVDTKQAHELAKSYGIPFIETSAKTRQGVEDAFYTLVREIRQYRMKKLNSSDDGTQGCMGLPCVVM
Sequence (P62937 whole entry): as the sequence (P62937 whole entry) above

- molecule: "CCn1c(-c2cc(N3CCN(C)CC3)cnc2[C@H](C)OC)c2c3cc(ccc31)-c1cccc(c1)C[C@H](NC(=O)[C@H](C(C)C)N(C)C(=O)[C@@H]1OCC[C@@H]1c1ccccc1)C(=O)N1CCC[C@H](N1)C(=O)OCC(C)(C)C2 (atropisomer, axis not shown)"
  IC50: "10 to 100 nM"

Could you now consider this next molecule?
The reported IC50 of the molecule CCn1c(-c2cccnc2[C@H](C)OC)c2c3cc(ccc31)-c1csc(n1)C[C@H](NC(=O)[C@H]1CCCO1)C(=O)N1CCC[C@H](N1)C(=O)OCC(C)(C)C2 (atropisomer, axis not shown) was 100 to 1000 nM

====

biological target: KRAS G12C (Homo sapiens, UniProt P01116+P62937, G12C); assay: Ras-Raf disruption / FRET / MOA assay (BRAF RBD); type: biochemical; settings: Ras-Raf disruption, with Cyclophilin A; read-out: KRAS G12C FRET data IC50
pIC50: −log10 of the molar value.
observable: pIC50

Bench note, KRAS G12C (Homo sapiens, UniProt P01116+P62937, G12C): entry CCn1c(-c2cccnc2[C@H](C)OC)c2c3cc(ccc31)-c1cc(O)cc(c1)C[C@H](NC(=O)[C@H](C(C)C)N(C)C(=O)N1CCN(C(=O)[C@H]3CN3)CC1)C(=O)N1CCC[C@H](N1)C(=O)OCC(C)(C)C2 [Example 177] , its pIC50 = 7.00 to 8.00

Bench note, KRAS G12C (Homo sapiens, UniProt P01116+P62937, G12C): entry CCn1c(-c2cccnc2[C@H](C)OC)c2c3cc(ccc31)-c1cccc(c1)C[C@H](NC(=O)[C@H](C(C)C)N(C)C(=O)[C@H]1C[C@H](N=C=NCCOC)C1)C(=O)N1CCC[C@H](N1)C(=O)OCC(C)(C)C2 [Example 78] , its pIC50 = 7.00 to 8.00
